FYI, the data here is from PubChem BioAssay (NCI).

- Tested on: NCI-H23 lung
- assay.protocol: NCI-60 one-dose screen, 48 h (100 = growth as untreated, 0 = no growth, -100 = all killed)
- condition.description: 10 µM unless noted
Compounds without any hit were thinned out: in the full panel of roughly 83,000, 20% have a hit.
Note to self: growth under 50% means yes (1), ties and anything higher get no (0).

Known results for molecules:
• O=S(=O)(c1ccc(NCSc2nc3ccccc3s2)cc1)c1ccc(NCSc2nc3ccccc3s2)cc1 = no (0)
• CC(=O)OCC(=O)O[C@@H]1C[C@]2(C(C)C)O[C@@]1(C)[C@@H]1CC[C@@H](C)[C@H]1[C@@H]2OC(=O)/C=C/c1ccccc1 = no (0)
• CCCCCN(CCCCC)CC(O)c1c(Cl)ccc2ccccc12 (centres undefined) = no (0)
• Cc1oc2ccc(O)c(CN3CCCCCC3)c2c1C(=O)Nc1ccc(C(F)(F)F)cc1 = no (0)
• COc1ccc(/C=N\NC(=O)c2ccc3nc(-c4ccc(Cl)cc4)[nH]c3c2)cc1 = yes (1)

Say whether its growth is strictly beneath 50%. Entry: `Cn1cc(-c2csc(-c3cn(CCO)c4ccc(F)cc34)n2)c2cccnc21` no (0)

Say whether its growth is strictly beneath 50%. Entry: `O=C1NCCS(=O)(=O)/C1=C\C=C\c1cccc(C(F)(F)F)c1` yes (1)

Say whether its growth is strictly beneath 50%. Entry: `COC(=O)CCc1c(/C=C2\N=C(c3ccc[nH]3)C=C2OC)[nH]c(C)c1C(=O)OCc1ccccc1` yes (1)

###

- Tested on: HOP-92 NSCLC
- assay.protocol: NCI-60 one-dose screen, 48 h (100 = growth as untreated, 0 = no growth, -100 = all killed)
- condition.description: 10 µM unless noted
This is part of a sample that, as a whole, favours compounds with a hit. Of some 83,000 tested, about 20% had one in any assay.
observation.type: growth (%)
Give bare numbers, in %.

Worked examples, 5 compounds total:
• Nc1ccc(N)c2c1C(=O)c1cccc([N+](=O)[O-])c1C2=O = 63.3
• COc1ccccc1-c1nc2ccc3[nH]ncc3c2c2c1CCCC2 = 70.5
• COc1ccc(C2CC(=O)Oc3c(OC)c4c(c(OC)c32)OCO4)cc1 (stereo not drawn) = 101
• CC(C)(C)n1cc(-c2ccnc(NCCNS(=O)(=O)c3ccc(Br)cc3)c2)c(-c2cccc(O)c2)n1 = 18.5
• COc1cc(/C=C2\C(=O)N(CCOc3cc(O)c4c(=O)cc(-c5ccccc5)oc4c3)c3ccccc32)cc(OC)c1O = 80.5

Batch of 2 compounds: report growth for each.
1. C=C(CNCCO)[C@@H]1CC[C@]2(CO)CC[C@]3(C)[C@H](CC[C@@H]4[C@@]5(C)CCC(NCCO)C(C)(C)[C@@H]5CC[C@]43C)[C@@H]12 (stereo partly drawn)
2. O=C(COc1ccc(/C=C2\Oc3ccccc3C2=O)cc1)Nc1nccs1

1. 65.5
2. 34.3

###

- Test system: MALME-3M melanoma
- assay.protocol: NCI-60 one-dose screen, 48 h (100 = growth as untreated, 0 = no growth, -100 = all killed)
- condition.description: 10 µM unless noted
This is part of a sample that, as a whole, favours compounds with a hit. Of some 83,000 tested, about 20% had one in any assay.
Field: growth. Provide a value for each of the compounds that follow.
Numbers only, in %.

Worked examples, 3 compounds total:
• Cc1c(C)c2c(c(C)c1OC(=O)CCC(=O)[O-])CCC(C)(CCCCCCCCCCC[P+](c1ccccc1)(c1ccccc1)c1ccccc1)O2 (stereo not drawn) = -83.6
• COc1cc2c(c(OC)c1OC)C(=O)CC(c1cccc(C(=O)Nc3ccc(Br)cc3)c1)O2 (stereo not drawn) = 70
• CC(C)(C)n1cc(-c2ccnc(NCCNS(=O)(=O)c3ccc(C(F)(F)F)cc3)c2)c(-c2ccccc2)n1 = 109

Batch of 7 compounds: report growth for each.
1. C1=C2CCCC3=Cc4ccccc4OC23Oc2ccccc21
2. CC1(C)CC[C@]2(CO)CC[C@]3(C)[C@H](CC[C@@H]4[C@@]5(C)CC[C@H](O)C(C)(C)[C@@H]5CC[C@]43C)[C@H]2[C@H]1O
3. CCOC(=O)CCC(=O)P(=O)(O)O
4. CCOC(=O)CC1C(CNC(=O)NC)OC(n2cnc3c(NC(=O)Nc4ccccc4)ncnc32)C1O[Si](C)(C)C(C)(C)C (stereo not drawn)
5. O=C(O)CCCN1C(=O)CSC1=S
6. O=c1cc(-c2nccc3c2[nH]c2ccccc23)c2cc(Cl)ccc2o1
7. CC(=O)[C@H]1CC[C@]2(C)[C@@H]1CC[C@@H]1[C@@]3(C)C/C(=C/c4cccnc4)C(=O)C(C)(C)[C@@H]3CC[C@]12C

1: 56.8; 2: 78.1; 3: 103; 4: 55.3; 5: 102; 6: 49.8; 7: 82.6

###

- Tested on: MDA-MB-231 breast
- assay.protocol: NCI-60 one-dose screen, 48 h
- condition.description: 10 µM unless noted
The panel holds about 83,000 compounds, 20% with a hit somewhere; the sample as a whole holds those more often. Active and inactive are the calls of the source. Rule for the calls: active = growth percent below 10; inactive = the rest.
Give your call using only these classes: true (1) for active, false (0) for inactive

Known results for compounds:
- [2H]C([2H])([2H])Oc1ccc(/C=C/C(=O)/C=C(O)/C=C/c2ccc(OC([2H])([2H])[2H])c(OC([2H])([2H])[2H])c2)cc1OC([2H])([2H])[2H]: false (0)
- COC(=O)c1nc(-c2ccccc2)oc1S(=O)(=O)N1CCN(c2ccc(OC)cc2)CC1: false (0)
- O=C1/C(=C/c2ccc(Br)cc2)COc2ccc(O)cc21: false (0)
- O=c1ccc2nc(-c3ccccc3)nn(-c3ccccn3)c-2c1: false (0)
- COc1ccc(/C=N/NC(=O)Cn2nnc3ccccc32)cc1: false (0)
- CCCC1Cc2cc(-n3nc(C)c4c3CC(C)(C)CC4=O)cc(NC3CCC(O)CC3)c2C(=O)N1 (centres undefined): true (1)
- CCCn1cnc2c(c1=N)C(c1ccc(Cl)cc1)c1sc3c(F)cccc3c1O2 (centres undefined): false (0)
- N#CC1=C(N)Oc2c(ccc3cccnc23)C1c1ccccc1 (centres undefined): false (0)
- C=C(C)[C@@H]1CC[C@]2(C(=O)NC(C)=O)CC[C@]3(C)[C@H](CC[C@@H]4[C@@]5(C)CCCNC(C)(C)[C@@H]5CC[C@]43C)[C@@H]12: false (0)
- CC/C(=C(/c1ccc(Cl)cc1)c1ccc(OCCN2CCCCCC2)cc1)c1ccccc1: false (0)

Entry `Cn1cc(-c2nc(-c3c[nH]c4ccncc34)cs2)c2cc(F)ccc21` : call = ? true (1)

Entry `COC(=O)CCc1c(/C=C2\N=C(c3ccc[nH]3)C=C2OC)[nH]c(C)c1C(=O)OCc1ccccc1` : call = ? true (1)

Entry `CCOC(=O)c1c(N)sc2cc(O)ccc12` : call = ? false (0)

Entry `C=C(c1ccc(C(=O)O)c(F)c1)c1cc2c(cc1C)C(C)(C)C=CC2(C)C` : call = ? false (0)

###

- System: OVCAR-4 ovarian
- assay.protocol: NCI-60 one-dose screen, 48 h
- condition.description: 10 µM unless noted
- Protocol: Growth inhibition of the OVCAR-4 human tumor cell line is measured as a screen for anti-cancer activity. Cells are grown in 96 well plates and exposed to the test compound for 48 hours. Compounds are tested at a single concentration, which is 10^-5 M for most compounds. The reported endpoint is percent growth (GI% or GIPRCNT), where numbers from 0 - 100% represent growth inhibition, and numbers from -100% - 0 represent cell death. For example, a value of 40 represents 60% growth inhibition. […]
This is part of a sample that, as a whole, favours compounds with a hit. Of some 83,000 tested, about 20% had one in any assay. Active and inactive are the calls of the source. The calls were made as follows: active = growth percent below 10; inactive = the rest.
Give your call using only these classes: active, inactive

Known results for compounds:
* O=C(Nc1ccccc1CNc1nc(Nc2ccc(OCCN3CCCC3)cc2)ncc1Cl)NC1CCCCC1 | inactive
* CCNCCNc1c(C)c(-c2ccc(C(F)(F)F)cc2)c(C#N)c2nc3ccccc3n12 | inactive
* CCCN1C(=O)N(CCC)C2C1NC(=S)N2/N=C/C=C/c1ccccc1OC (stereo unspecified) | inactive

Entry `O=C(Nc1ncc(Cc2ccc(Cl)cc2)s1)c1ccc2c(c1)OCCO2` : call = ? inactive

Entry `CCCCCCCCCCCCCCCCCCOc1ccccc1CC(=O)OCC[N+]1(C)CCCCC1` : call = ? inactive

Entry `CC(C)(C)n1cc(-c2ccnc(NCCNS(=O)(=O)c3ccc(Br)cc3)c2)c(-c2cccc(O)c2)n1` : call = ? inactive

Entry `Cc1ccc(Nc2oc(-c3ccccc3)nc2[P+](c2ccccc2)(c2ccccc2)c2ccccc2)cc1` : call = ? active

Entry `COc1ccc(CNc2c3ccccc3nc3ccccc23)cc1OC` : call = ? inactive

Entry CCN1C(=O)N(CC)C2C1NN=c1s/c(=C\c3ccc(F)cc3)c(=O)n12 (stereo unspecified) : call = ? inactive

Entry `COC(=O)c1sc(-c2ccc(C)cc2)cc1O` : call = ? inactive

Entry COC(=O)c1nc(-c2ccccc2)oc1S(=O)(=O)NCC(c1ccc(Cl)cc1)N1CCCCC1 (stereo unspecified) : call = ? inactive

Entry `O=C(/C=C/c1ccco1)c1ccc(Nc2ccnc3cc(Cl)ccc23)cc1` : call = ? inactive

Entry COc1cc2c(c(OC)c1OC)C(=O)CC(c1cccc(C(=O)Nc3ccc(Br)cc3)c1)O2 (stereo unspecified) : call = ? inactive

Entry `CC(C)n1cc(C2=C(c3cccc4ccccc34)C(=O)NC2=O)c2cc(Br)ccc21` : call = ? inactive

Entry `CCOc1ccccc1NC(=O)CCC(=O)OC` : call = ? inactive

Entry `CCOC(=O)c1c(N)sc2cc(O)ccc12` : call = ? inactive

Entry `COc1ccc(Cn2cc3c(c2)-c2oncc2CC3)cc1` : call = ? inactive

Entry `CC(C)(C#N)c1cc(C(=O)Nc2cc(Nc3ncccc3-c3ncnc4nc[nH]c34)ccc2F)cc(C(F)(F)F)c1` : call = ? inactive

Entry `C1=C2CCCC3=Cc4ccccc4OC23Oc2ccccc21` : call = ? inactive

Entry `CCN1CCN(c2cc(C(=O)Nc3cccc(Nc4ccc5c(OC)cccc5n4)c3)cc(C(F)(F)F)c2)CC1` : call = ? inactive

Entry N#C/C(=C\c1cccc2cnccc12)N1N=NC2C=CC=CC21 (stereo unspecified) : call = ? inactive
